These data points were gathered from patent US20230110188A1.

# MEASUREMENT TARGET: T1, Human MuSK (R&D Systems, cat. 10189-MK, histidine tag) (human, UniProt O15146 24-495)
# T1 construct: Bought protein; also called human monomeric MuSK-6xhis; not shown: histidine tag (6xhis)
# T1 sequence: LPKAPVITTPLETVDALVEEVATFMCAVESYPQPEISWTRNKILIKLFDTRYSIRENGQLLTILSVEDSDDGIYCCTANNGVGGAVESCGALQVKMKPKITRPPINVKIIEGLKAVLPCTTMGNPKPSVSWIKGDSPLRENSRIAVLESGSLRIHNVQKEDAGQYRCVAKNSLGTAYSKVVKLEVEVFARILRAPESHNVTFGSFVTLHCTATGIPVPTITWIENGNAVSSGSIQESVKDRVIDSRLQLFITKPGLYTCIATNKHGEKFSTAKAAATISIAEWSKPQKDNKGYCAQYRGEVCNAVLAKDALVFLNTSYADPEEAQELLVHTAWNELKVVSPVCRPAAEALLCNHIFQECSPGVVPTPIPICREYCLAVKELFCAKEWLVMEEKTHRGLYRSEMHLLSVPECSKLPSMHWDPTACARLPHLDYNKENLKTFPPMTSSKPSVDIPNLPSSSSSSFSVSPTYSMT
# RUN DESCRIPTION: SPR (Biacore), MuSK-coated chip presaturated with 500 nM 4D3 (competitor)
Consider the following binders; for each one, report its amplitude of prelead after presaturating MuSK (RU).
Answers are plain numbers, in RU.

4D3 (antibody, human IgG1, kappa, L234A L235A, V domains shown) VH: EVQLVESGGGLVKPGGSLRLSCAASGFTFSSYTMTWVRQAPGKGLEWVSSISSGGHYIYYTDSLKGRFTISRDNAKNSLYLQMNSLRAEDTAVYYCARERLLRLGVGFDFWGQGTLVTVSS VL: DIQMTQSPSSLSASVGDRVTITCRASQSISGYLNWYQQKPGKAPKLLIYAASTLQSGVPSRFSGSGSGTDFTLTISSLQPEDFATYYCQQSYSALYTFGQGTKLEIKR :: 45
3D9b (antibody, human IgG1, kappa, L234A L235A, V domains shown) VH: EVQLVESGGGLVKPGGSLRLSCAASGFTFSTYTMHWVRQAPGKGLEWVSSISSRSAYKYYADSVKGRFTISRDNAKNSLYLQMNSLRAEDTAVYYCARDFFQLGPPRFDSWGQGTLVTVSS VL: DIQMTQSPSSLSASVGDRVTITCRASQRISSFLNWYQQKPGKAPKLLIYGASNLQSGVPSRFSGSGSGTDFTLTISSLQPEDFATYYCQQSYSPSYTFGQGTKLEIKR :: 163
3B5 (antibody, V domains shown, also called 3B5wt) VH: QVQLVQSGAVVAKPGASVQVSCKTSGYTFTGQYLHWVRQAPGQGLEWIGWINPSSGVTKFAEKFEGRATMTRDTSITTAYIDLRSLRSDDTATYYCATLSLGVYYVGMVAWGQGTLVTVSS VL: ELTQPPSVSVSPGQTATITCSGDGLAQQHVYWFQQRPGQAPLLIIYKDIERPSGIPERFSGSSSGTTAMLTISGVQAEDEADYYCQSGDRTATSVLFGGGTKMTVLG :: 141

Consider now this further binder.
Which amplitude of prelead after presaturating MuSK (RU) is listed for 3F6c (antibody, human IgG1, kappa, L234A L235A, V domains shown) VH: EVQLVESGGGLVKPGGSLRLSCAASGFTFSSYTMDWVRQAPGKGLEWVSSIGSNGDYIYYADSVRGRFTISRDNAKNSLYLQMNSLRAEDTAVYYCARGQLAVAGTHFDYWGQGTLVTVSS VL: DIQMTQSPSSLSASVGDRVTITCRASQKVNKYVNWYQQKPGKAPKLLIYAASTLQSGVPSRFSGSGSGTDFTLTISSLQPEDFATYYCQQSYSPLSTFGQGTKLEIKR ?
59
